The following compounds are listed with their measured GI50 values.
- Test system: HT-29
- assay-procedure: NCI tumour cell line growth inhibition, 48 h
The source made the active and inactive calls. No stated cut-off is given here; in the data, active = GI50 up to about 1.1 µM and inactive = higher.

{"compound": "C=CCSC[C@H](NC(=O)COc1ccccc1)C(=O)NC(C(=O)OCc1ccc([N+](=O)[O-])cc1)=C(C)C", "target-of-assay": "HT-29", "GI50": "39.1 µM (inactive)"}

State its GI50 on HT-29: CCCC(=O)C(CC)/C(CCC(=O)N(Cc1ccccc1)Cc1ccccc1)=N/NC(=O)C[N+](C)(C)C (centres undefined) > 100 µM (inactive)

State its GI50 on HT-29: `O=C(O)[C@H]1[C@@H](C2CCCCC2)O[C@@H](C2CCCCC2)O[C@H]1C(F)(F)F` 22.6 µM (inactive)

State its GI50 on HT-29: CC(NC(=O)/C(=C/c1ccccc1)NC(=O)c1ccccc1)C(=O)O (centres undefined) > 100 µM (inactive)

State its GI50 on HT-29: CC1CCC2(NC1)OC1CC3C4CC=C5CC(OC6OC(CO)C(OC7OC(C)C(O)C(O)C7O)C(O)C6OC6OC(C)C(O)C(O)C6O)CCC5(C)C4CCC3(C)C1C2C (centres undefined) 5.69 µM (inactive)

State its GI50 on HT-29: `N#CCCN(CCC#N)c1ccc(C(=N/c2ccc(Cl)cc2)/N=N/c2ccc(Cl)cc2)cc1` 19.8 µM (inactive)

State its GI50 on HT-29: `C=CCN1C(=O)C(=O)N(CC=C)C(=O)C1=O` > 100 µM (inactive)

State its GI50 on HT-29: Cc1ccc(N2C(=O)C3c4[nH]c5ccccc5c4C4CCC(C(C)(C)C)CC4C3C2=O)cc1 (centres undefined) 13 µM (inactive)

State its GI50 on HT-29: `CO[C@H](C)[C@](O)(C(=O)OCC1=CCN2CC[C@@H](O)[C@H]12)C(C)C` > 100 µM (inactive)

Cited source for all entries: ChEMBL document CHEMBL1201862
